- Tested target: human KHK-C (Homo sapiens (Human), UniProt P50053)
- Sequence (P50053 whole entry): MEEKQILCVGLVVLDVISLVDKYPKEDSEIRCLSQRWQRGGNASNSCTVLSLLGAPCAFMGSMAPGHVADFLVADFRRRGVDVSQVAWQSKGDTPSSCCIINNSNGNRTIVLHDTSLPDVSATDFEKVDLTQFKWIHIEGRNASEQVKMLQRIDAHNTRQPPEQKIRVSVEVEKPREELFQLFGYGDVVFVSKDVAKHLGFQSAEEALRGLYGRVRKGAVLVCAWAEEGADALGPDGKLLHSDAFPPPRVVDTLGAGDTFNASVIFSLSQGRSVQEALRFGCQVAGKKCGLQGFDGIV
- Test protocol: KHK Biochemical Assay (IC50), ADP-Glo, KHK-C
- Experimental parameters: ADP-Glo; average of at least two separate assays
Examples of compounds with documented pIC50 follow.
Scale: negative log10 of molar concentration, which is what pIC50 denotes.

Sample answers from the record:
COC(=O)CCc1ccccc1-c1nc(N2CC[C@@H]2C)nc2c1CCC2 | 4.51
C[C@H]1CCN1c1nc2c(c(-c3ccc(-c4nnn[nH]4)cc3)n1)CCC2 | 7.34
C[C@H]1CCN1c1nc2c(c(-c3cccc(CNC(=O)OC(C)(C)C)c3)n1)CCC2 | 6.30

Below: the item to evaluate.
Look up pIC50 with human KHK-C (Homo sapiens (Human), UniProt P50053) for this compound: COCCS(=N)(=O)c1cc(-c2nc(N3CC[C@@H]3C)nc3c2CCC3)ccc1OC (stereo partly shown)
7.67
